Target: human CLDN18.2 (human)
Test: cell-based or functional assay
Observation type: CDC EC50, KATOIII target cells (nM)
Give just the numeric value; nM need not be written.

chimeric antibody xi40F6 (antibody, human IgG1, kappa, V domains shown, Mouse variable regions on human IgG1/kappa; defucosylated, expressed in FUT8-knockout CHO-S cells; also called chimeric 40F6) VH: QVQLKESGPGLVAPSQSLSITCTVSGFSLTSYGVYWVRQSPGKGLEWLGVVWAGGNTNYNSALMSRLSISKDNSKSQVFLKMNSLQTDDTAMYYCARDRGRLLAMDYWGQGTSVTVSS VL: DVVMTQSPSSLSVSAGEKVTMSCKSSQSLLNSGNQKNYLAWYQQKPGQPPKLLIYGASTRESGVPDRFTGSGSGTDFTLTISSVQAEDLAVYYCQNDHFFPFTFGSGTKLEIKR | 0.127

We now examine a further binder.
Request: Which CDC EC50, KATOIII target cells is reported for this binder? chimeric antibody xi34G6 (antibody, human IgG1, kappa, V domains shown, Mouse variable regions on human IgG1/kappa; defucosylated, expressed in FUT8-knockout CHO-S cells; also called chimeric 34G6) VH: QVQLKESGPDLVAPSQSLSITCTVSGFSLTSYGVHWVRQPPGKGLEWLVVIWSDGSTTYNSALKSRLSISKDNSKSQVFLKMNSLQTDDTAIYYCARHAYYGNSFDYWGQGTTLTVSS VL: DIVMTQSPSSLTVTAGEKVTMSCKSSQSLLNSGNQKSYLTWYQQKPGQPPKLLIYWASTRESGVPDRFTGSGSGTDFTLTISSVQAEDLAVYYCQNVYIFPLTFGAGTKLELKR
Response: 0.302
